- Assay System: UniProtKB O43598
- Assay Summary: Isothermal titration calorimetry with human DNPH1
- Experimental Conditions: ITC, T = 298 K, pH 6.0, human DNPH1
Endpoint Name: ∆G

Form field ∆G, entry CC(C)=CCNc1ncnc2c1ncn2[C@@H]1O[C@H](COP(=O)(O)O)[C@@H](O)[C@H]1O : -7.8 kcal/mol

Reported ∆G of O=P(O)(O)OC[C@H]1O[C@@H](n2cnc3c(NC4CCCC4)ncnc32)[C@H](O)[C@@H]1O : -8.0 kcal/mol

O=P(O)(O)OC[C@H]1O[C@@H](n2cnc3c(NCc4ccco4)ncnc32)[C@H](O)[C@@H]1O [Compound 5, kinetin riboside 5’-monophosphate] has a reported ∆G of -7.5 kcal/mol

Measured ∆G, O=C(O)CCCNc1ncnc2c1ncn2[C@@H]1O[C@H](COP(=O)(O)O)[C@@H](O)[C@H]1O : -7.2 kcal/mol

###

- Assay System: rat DNPH1 (Rattus norvegicus, UniProt O35820)
- Sequence (O35820 1-163): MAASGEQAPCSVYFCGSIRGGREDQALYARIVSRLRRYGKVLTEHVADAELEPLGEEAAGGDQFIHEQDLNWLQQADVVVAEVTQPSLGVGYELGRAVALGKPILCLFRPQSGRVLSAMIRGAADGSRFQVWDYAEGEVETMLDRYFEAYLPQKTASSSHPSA
Endpoint Name: Kd (µM)
Report only the number, with the unit µM understood.

// Kd lookup, compound = O=P(O)(O)OC[C@H]1O[C@@H](n2cnc3c(NC4CCCC4)ncnc32)[C@H](O)[C@@H]1O , result: 0.6

response.value for CC(C)=CCNc1ncnc2c1ncn2[C@@H]1O[C@H](COP(=O)(O)O)[C@@H](O)[C@H]1O (field: Kd) = 2.6

Summary for this compound, O=P(O)(O)OC[C@H]1O[C@@H](n2cnc3c(NCc4ccco4)ncnc32)[C@H](O)[C@@H]1O [Compound 5, kinetin riboside 5’-monophosphate] : Kd is 0.8

The reported Kd of the compound O=P(O)(O)OC[C@H]1O[C@@H](n2cnc3c(NC4CCCCC4)ncnc32)[C@H](O)[C@@H]1O was 0.5

###

- Assay System: rat DNPH1 (Rattus norvegicus)
- Assay Summary: Isothermal titration calorimetry with rat DNPH1
- Experimental Conditions: ITC, T = 298 K, pH 6.0, rat DNPH1
Endpoint Name: ∆S (cal.K^1.mol^-1)
Please respond with the number in cal.K^1.mol^-1 and leave the unit unwritten.

response.value for O=C(O)CCCNc1ncnc2c1ncn2[C@@H]1O[C@H](COP(=O)(O)O)[C@@H](O)[C@H]1O (field: ∆S) = -18.5

Entry under test: O=P(O)(O)OC[C@H]1O[C@@H](n2cnc3c(NC4CCCCC4)ncnc32)[C@H](O)[C@@H]1O . Its ∆S was -37.6

∆S measured on O=P(O)(O)OC[C@H]1O[C@@H](n2cnc3c(NCc4ccco4)ncnc32)[C@H](O)[C@@H]1O [Compound 5, kinetin riboside 5’-monophosphate] = -58.3

Entry CC(C)=CCNc1ncnc2c1ncn2[C@@H]1O[C@H](COP(=O)(O)O)[C@@H](O)[C@H]1O ; ∆S = -27.9

The compound listed as O=P(O)(O)OC[C@H]1O[C@@H](n2cnc3c(NC4CCCC4)ncnc32)[C@H](O)[C@@H]1O shows ∆S equal to -7.5

###

Kindly state Ki for each of the entries shown.
- Assay System: human DNPH1 (Homo sapiens, UniProt O43598)
- Sequence (O43598 1-174): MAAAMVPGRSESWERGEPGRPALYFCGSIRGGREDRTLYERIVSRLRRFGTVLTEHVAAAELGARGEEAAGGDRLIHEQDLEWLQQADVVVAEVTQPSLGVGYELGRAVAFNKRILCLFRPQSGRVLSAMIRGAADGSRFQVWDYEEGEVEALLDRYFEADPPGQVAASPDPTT
Form entry: value (µM) — number only.

Reported Ki ( O=C(O)CCNc1ncnc2c1ncn2[C@@H]1O[C@H](COP(=O)(O)O)[C@@H](O)[C@H]1O ) = 5.6

For C/C(=C/CNc1ncnc2c1ncn2[C@@H]1O[C@H](COP(=O)(O)O)[C@@H](O)[C@H]1O)CO [Compound 3, cis-zeatin riboside 5’-monophosphate] the molecule record lists Ki as 5.6

Per the records, this molecule ( CC(CO)CCNc1ncnc2c1ncn2[C@@H]1O[C@H](COP(=O)(O)O)[C@@H](O)[C@H]1O (stereo partly shown) [Compound 4, dihydrozeatin riboside 5’-monophosphate] ) has Ki equal to 3.9

Noted for O=P(O)(O)OC[C@H]1O[C@@H](n2cnc3c(NCc4ccco4)ncnc32)[C@H](O)[C@@H]1O [Compound 5, kinetin riboside 5’-monophosphate] : its Ki reads 2.2

// recorded Ki for C/C(=C\CNc1ncnc2c1ncn2[C@@H]1O[C@H](COP(=O)(O)O)[C@@H](O)[C@H]1O)CO [Compound 2, trans-zeatin riboside 5’-monophosphate] : 8

get_value(item= O=P(O)(O)OC[C@H]1O[C@@H](n2cnc3c(NCCc4ccccc4)ncnc32)[C@H](O)[C@@H]1O , readout=Ki) returns 7.8

# Ki of O=P(O)(O)OC[C@H]1O[C@@H](n2cnc3c(NC4CCCCC4)ncnc32)[C@H](O)[C@@H]1O = 1.6
